Reference for the values: PubChem BioAssay (NCI)

Give TGI for every item shown.
system: DLD-1 colon; experiment: NCI tumour cell line growth inhibition, 48 h

TGI lookup needed for Cc1cccc(C)c1NC(=O)/C(=N/NC(N)=S)C(C)C(=O)c1ccc(Cl)cc1 (stereo unspecified) , thanks.
> 100 µM

Could you share which TGI value was measured for O=c1nc(NC2CCCCO2)ccn1CCO (stereo unspecified) ?
> 100 µM

Could you share which TGI value was measured for CC1(O)C=CC(=O)C=C1 ?
28.2 µM

TGI lookup needed for COC(=O)C1(C)CCc2c(OC)ccc(OC)c2C1=O (stereo unspecified) , thanks.
> 100 µM

Recorded TGI of O=C1OC(Cc2ccccc2)(N2CCCC2=O)C1c1ccccc1 (stereo unspecified) , please.
> 100 µM

Which TGI value is on record for O=C1OC2(CC1C1(O)C3CC4CC(C3)CC1C4)C1CC3CC(C1)CC2C3 (stereo unspecified) ?
> 100 µM

Which TGI is listed for COc1cccc(OC)c1C(=O)OCc1ccccc1 ?
> 100 µM

Record request: TGI value, item CCCP1(=O)C=C(C)C(=C(Cl)Cl)C(C)=C1 (stereo unspecified)
> 100 µM

Form field: reported TGI of c1ccc2c(c1)C1CCCCCC21N1CCOCC1 (stereo unspecified)
> 100 µM

Which measured TGI value corresponds to CS(=O)(=O)c1ccc(-c2cc(-c3ccc(S(C)(=O)=O)cc3)[n+](-c3cc(-c4ccc(S(C)(=O)=O)cc4)c([O-])c(-c4ccc(S(C)(=O)=O)cc4)c3)c(-c3ccc(S(C)(=O)=O)cc3)c2)cc1 ?
> 100 µM

Param item = CCCNC(=O)C(C)C1CCC2(C)C=CC(=O)C(C)=C2C1O (stereo unspecified) ; retrieve measured TGI.
> 100 µM

Reported TGI for Cc1ccc(-c2nnc(-c3nn(-c4ccccc4)c4nc5ccccc5nc34)o2)cc1 : what is it?
> 100 µM

Which value of TGI has been reported for CC(=O)NC(CCCNC(=O)N(CCCl)N=O)C(=O)NCc1ccccc1 (stereo unspecified) in the records?
> 100 µM

Please look up its TGI: Nc1nc(OCc2ccccc2)c2[nH]cnc2n1
400 µM

Which TGI value is on record for N#C[C@H](OC1OC(COC2OC(CO)C(O)C(O)C2O)C(O)C(O)C1O)c1ccccc1 (stereo partly specified) ?
> 250 µM

Name the reported TGI value associated with the compound O=C(CCl)NNC1=Nc2ccc(Cl)cc2SC1
3.6 µM

What value of TGI has been recorded for this entry: O=C(CSc1nnc(Cc2ccccc2)o1)Nc1ccccc1
> 100 µM

// lookup TGI for Fc1ccc(C2SCc3nc4ccccc4n32)c(F)c1 (stereo unspecified)
> 100 µM

Fill in: TGI of O=C(/C=C/c1ccccc1)CCN1CCOCC1 is ___
22.1 µM

Given the entry COC(=O)c1onc(-c2c(OC)cc(OC)cc2OC)c1C(=O)OC , report its measured TGI.
> 100 µM

# TGI lookup, item Cc1ccc(C2OC(COCc3ccc(Cl)cc3)C(OCc3ccc(Cl)cc3)C2O)cc1 (stereo unspecified)
34.1 µM
